Entries and their oxLDL uptake IC50 (nM), F293/hCD36
- TARGET DESC: full-length human CD36-Flag overexpressed on stable F293 cells (human, UniProt P16671 2-472)
- Sequence (P16671 2-472): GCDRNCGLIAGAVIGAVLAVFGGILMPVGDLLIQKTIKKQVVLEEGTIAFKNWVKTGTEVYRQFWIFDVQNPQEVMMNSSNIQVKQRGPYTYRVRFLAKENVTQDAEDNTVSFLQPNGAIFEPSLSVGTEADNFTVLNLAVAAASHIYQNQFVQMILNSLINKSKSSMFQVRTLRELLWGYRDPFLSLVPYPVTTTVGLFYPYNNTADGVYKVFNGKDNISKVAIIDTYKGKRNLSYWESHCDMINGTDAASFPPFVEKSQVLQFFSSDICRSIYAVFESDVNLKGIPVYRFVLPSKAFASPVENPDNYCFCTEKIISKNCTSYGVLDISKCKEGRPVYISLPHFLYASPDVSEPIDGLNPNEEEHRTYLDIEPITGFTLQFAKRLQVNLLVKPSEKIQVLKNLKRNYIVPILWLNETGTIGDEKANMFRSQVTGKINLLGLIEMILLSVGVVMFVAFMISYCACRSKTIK
- PROTOCOL DETAILS: cell-based or functional assay
Use nM as the unit, but write only the number.

117_57D (antibody, V domains shown, full-length IgG, human kappa) VH: EVQLVESGGGLVQPGGSLRLSCAASGFTISSFGIHWVRQAPGKGLEWVAWIAPYGGDTYYADSVKGRFTISADTSKNTAYLQMNSLRAEDTAVYYCARSFFGYFDYWGQGTLVTVSS VL: DIQMTQSPSSLSASVGDRVTITCRASQDVSNWVAWYQQKPGKAPKLLISYATSLYSGVPSRFSGSGSGTDFTLTISSLQPEDFATYYCQQHSNAPLTFGQGTKVEIKR
0.349
117_57EE (antibody, V domains shown, full-length IgG, human kappa) VH: EVQLVESGGGLVQPGGSLRLSCAASGFTISSFGIHWVRQAPGKGLEWVAWIAPYGGEEYYADSVKGRFTISADTSKNTAYLQMNSLRAEDTAVYYCARSFFGYFDYWGQGTLVTVSS VL: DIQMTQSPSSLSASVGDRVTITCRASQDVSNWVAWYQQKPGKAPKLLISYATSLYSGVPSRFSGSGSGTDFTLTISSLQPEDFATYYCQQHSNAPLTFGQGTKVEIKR
0.348
117 (antibody, V domains shown, Full-length IgG, human kappa) VH: EVQLVESGGGLVQPGGSLRLSCAASGFTISSFGIHWVRQAPGKGLEWVAWIAPYGGYTYYADSVKGRFTISADTSKNTAYLQMNSLRAEDTAVYYCARSFFGYFDYWGQGTLVTVSS VL: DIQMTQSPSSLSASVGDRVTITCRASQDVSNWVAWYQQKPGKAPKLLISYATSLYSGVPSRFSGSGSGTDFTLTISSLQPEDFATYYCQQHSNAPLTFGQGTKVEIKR
0.702

Consider the binder 117_DA57E (antibody, V domains shown, full-length IgG, human kappa) VH: EVQLVESGGGLVQPGGSLRLSCAASGFTIDAFGIHWVRQAPGKGLEWVAWIAPYGGETYYADSVKGRFTISADTSKNTAYLQMNSLRAEDTAVYYCARSFFGYFDYWGQGTLVTVSS VL: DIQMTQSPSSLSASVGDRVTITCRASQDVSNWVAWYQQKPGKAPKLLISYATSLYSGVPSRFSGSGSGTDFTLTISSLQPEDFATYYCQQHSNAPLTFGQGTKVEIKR and give its measured oxLDL uptake IC50 (nM), F293/hCD36.
0.306
